Test system: TAB113
Experiment: qHTS profiling for inhibitors of Plasmodium falciparum proliferation (AID 504749); also: nearly all actives have a fitted effect of over 60% in size
Settings: P. falciparum in erythrocytes, SYBR Green DNA, 72 h; series mostly up to 28.7 µM
Results filed as inconclusive are left out. Calls of active or inactive are those of the source. Calls follow the shape of the dose curve; as a rule, active = well fitted inhibition curve with a large enough effect; inconclusive = small, poorly fitted or top-dose-only effect; inactive = flat fitted curve, though single readings scatter.
The reply should be one of these categories: 1 = active, -1 = inactive

-- ask Recorded test call requested for `O=C(OCCN1CCCCC1)C(O)(c1ccccc1)c1ccccc1`
-- reply -1

-- ask Recorded test call requested for [N-]=[N+]=CC(=O)OCC(N)C(=O)O (stereo not given)
-- reply -1

-- ask Recorded test call requested for `O=CC=O`
-- reply -1

-- ask Recorded test call requested for `CNC(=O)OCC[N+](C)(C)C`
-- reply -1

-- ask Recorded test call requested for `c1cc2c(c(NC3=NCCN3)c1)CCCC2`
-- reply -1

-- ask Recorded test call requested for CC(N)Cc1ccc(O)cc1 (stereo not given)
-- reply -1

-- ask Recorded test call requested for `O=[N+]([O-])C(Br)(CO)CO`
-- reply -1

-- ask Recorded test call requested for COc1ccc(OC)c(C(O)C(C)N)c1 (stereo not given)
-- reply -1

-- ask Recorded test call requested for `C[CH2][Hg][S]c1ccccc1C(=O)O`
-- reply 1

-- ask Recorded test call requested for C[N+]1(C)CCCCC1COC(=O)C(O)(c1ccccc1)c1ccccc1 (stereo not given)
-- reply -1

-- ask Recorded test call requested for COCC(C)N(C(=O)CCl)c1c(C)csc1C (stereo not given)
-- reply -1

-- ask Recorded test call requested for `CC(C)CCON=O`
-- reply -1

-- ask Recorded test call requested for `CCC(=O)O[C@@](Cc1ccccc1)(c1ccccc1)[C@@H](C)CN(C)C`
-- reply -1

-- ask Recorded test call requested for C[N+]1(C)C2CCC1CC(OC(=O)c1c[nH]c3ccccc13)C2 (stereo not given)
-- reply -1

-- ask Recorded test call requested for CCCC(=O)OC(C(Cl)(Cl)Cl)P(=O)(OC)OC (stereo not given)
-- reply -1

-- ask Recorded test call requested for `CC[N+](C)(CC)CCOC(=O)C(O)(c1ccccc1)c1ccccc1`
-- reply -1

-- ask Recorded test call requested for `CCON=O`
-- reply -1

-- ask Recorded test call requested for ClC1C(Cl)C(Cl)C(Cl)C(Cl)C1Cl (stereo not given)
-- reply -1

-- ask Recorded test call requested for O=C1CC[C@@]2(O)C3Cc4ccc(O)c5c4C2(CCN3CC2CC2)[C@H]1O5 (stereo not given in full)
-- reply -1

-- ask Recorded test call requested for `O=C(O)C(Cl)(Cl)Cl`
-- reply -1

-- ask Recorded test call requested for `CC(C)(C)c1cc(O)ccc1O`
-- reply 1

-- ask Recorded test call requested for `O=Cc1ccco1`
-- reply -1

-- ask Recorded test call requested for `S=C=S`
-- reply -1

-- ask Recorded test call requested for `O=C1CN=C(c2ccccc2)c2cc(Cl)ccc2N1CC1CC1`
-- reply -1

-- ask Recorded test call requested for CNC1(c2ccccc2Cl)CCCCC1=O (stereo not given)
-- reply -1

-- ask Recorded test call requested for ClCC1CO1 (stereo not given)
-- reply -1

-- ask Recorded test call requested for CCC(N)Cc1c[nH]c2ccccc12 (stereo not given)
-- reply -1

-- ask Recorded test call requested for CCNC(C)Cc1cccc(C(F)(F)F)c1 (stereo not given)
-- reply -1

-- ask Recorded test call requested for `CCCCCl`
-- reply -1

-- ask Recorded test call requested for `Oc1cccc[c]1[Hg][Cl]`
-- reply 1

-- ask Recorded test call requested for O=C1C2CC=CCC2C(=O)N1SC(Cl)(Cl)Cl (stereo not given)
-- reply -1

-- ask Recorded test call requested for `c1ccc2cc(CC3=NCCN3)ccc2c1`
-- reply -1

-- ask Recorded test call requested for `O=C1CCO1`
-- reply -1

-- ask Recorded test call requested for `O=c1c2ccccc2[se]n1-c1ccccc1`
-- reply 1

-- ask Recorded test call requested for CN1C2CCC1CC(OC(c1ccccc1)c1ccc(Cl)cc1)C2 (stereo not given)
-- reply 1

-- ask Recorded test call requested for `CCCCCCCCOC(=O)c1ccccc1C(=O)OCCCCCCCC`
-- reply -1

-- ask Recorded test call requested for `CCC1(CC)C(=O)NC(=O)N(C)C1=O`
-- reply -1

-- ask Recorded test call requested for `[O]=[Cr](=[O])([OH])[O][Cr](=[O])(=[O])[OH]`
-- reply -1

-- ask Recorded test call requested for `O=C1CN(O)C(c2ccccc2)=c2cc(Cl)ccc2=N1`
-- reply -1

-- ask Recorded test call requested for `CCOc1ccc2c3c1O[C@H]1[C@@H](O)C=C[C@H]4[C@@H](C2)N(C)CC[C@@]341`
-- reply -1

-- ask Recorded test call requested for `O=C(CCl)c1ccc(Oc2ccc(C(=O)CCl)cc2)cc1`
-- reply -1

-- ask Recorded test call requested for C=CCC1(C(C)CCC)C(=O)N=C(S)NC1=O (stereo not given)
-- reply -1

-- ask Recorded test call requested for `O=c1[nH]cc(N(CCCl)CCCl)c(=O)[nH]1`
-- reply -1

-- ask Recorded test call requested for CC1CCC(C(C)C)C(OC(=O)c2ccccc2N)C1 (stereo not given)
-- reply -1

-- ask Recorded test call requested for `CC(C)Nc1ccc(Nc2ccccc2)cc1`
-- reply 1

-- ask Recorded test call requested for `O=P(O)(O)C(Cl)(Cl)P(=O)(O)O`
-- reply -1

-- ask Recorded test call requested for `CCC1(C)CC(=O)NC(=O)C1`
-- reply -1

-- ask Recorded test call requested for `O=C(NC(=O)c1c(F)cccc1F)Nc1ccc(Cl)c(Oc2ncc(C(F)(F)F)cc2Cl)c1`
-- reply -1

-- ask Recorded test call requested for O=C(NCNC(=O)NC1C(=O)NC(=O)N1CO)NC1C(=O)NC(=O)N1CO (stereo not given)
-- reply -1

-- ask Recorded test call requested for `c1csc(C2(N3CCCCC3)CCCCC2)c1`
-- reply -1

-- ask Recorded test call requested for `CCCCCCCCCC(=O)O[C@H]1CC[C@H]2[C@@H]3CCC4=CC(=O)CC[C@]4(C)[C@H]3CC[C@]12C`
-- reply -1

-- ask Recorded test call requested for `C/C(=C\c1csc(C)n1)[C@@H]1C[C@@H]2O[C@]2(C)CCC[C@H](C)[C@H](O)[C@@H](C)C(=O)C(C)(C)[C@@H](O)CC(=O)O1`
-- reply 1

-- ask Recorded test call requested for COc1ccc2c(c1OC)C(=O)OC2C1c2cc3c(cc2CCN1C)OCO3 (stereo not given)
-- reply -1

-- ask Recorded test call requested for CNC(C)C(O)c1ccc(O)cc1 (stereo not given)
-- reply -1

-- ask Recorded test call requested for `O=[N+]([O-])c1ccccc1`
-- reply -1
